- TARGET: human CB1R (Homo sapiens, UniProt P21554)
- Construct: host or cells: CHO cells
- Sequence (P21554 whole entry): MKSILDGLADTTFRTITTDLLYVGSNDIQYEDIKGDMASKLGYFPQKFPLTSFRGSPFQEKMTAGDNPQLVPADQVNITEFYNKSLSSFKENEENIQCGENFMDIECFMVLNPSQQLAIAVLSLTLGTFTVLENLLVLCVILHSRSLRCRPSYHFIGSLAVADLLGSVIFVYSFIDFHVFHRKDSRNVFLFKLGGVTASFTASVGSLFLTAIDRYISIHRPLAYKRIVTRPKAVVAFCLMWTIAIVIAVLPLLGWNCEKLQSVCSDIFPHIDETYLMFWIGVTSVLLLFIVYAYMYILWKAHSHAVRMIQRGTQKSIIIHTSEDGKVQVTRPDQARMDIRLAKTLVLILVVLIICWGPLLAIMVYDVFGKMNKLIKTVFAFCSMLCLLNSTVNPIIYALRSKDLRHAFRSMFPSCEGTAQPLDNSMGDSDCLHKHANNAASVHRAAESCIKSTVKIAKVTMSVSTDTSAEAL
- ASSAY METHOD TEXT: CB1R mediated modulation of cAMP synthesis
- Format: cell-based
- CONDITIONS: CB1 EC50, CHO cells expressing human CB1R; inhibition of forskolin-stimulated cAMP synthesis
- Method: C. CB1R Mediated Modulation of cAMP Synthesis: Compounds of the invention are evaluated for their CB1 agonist or inverse agonistic activity in accordance with the following experimental method. CHO cells expressing human CB1R (Euroscreen) are plated at a density of 5000 cells per well in 384 well plates and incubated overnight at 37° C. […] Cells are lysed and the cAMP concentration is measured using DiscoverX-XS cAMP kit, following the manufacturer's protocol. […] EC50 of agonists are calculated as follows. […]
RECORDED METRIC: EC50

# SAMPLE SMILES, EC50
records = [
    ("CC(C)(C(=O)Nc1nc(-c2ncco2)n[nH]1)S(=O)(=O)C1CCOCC1", "> 50 µM"),
]

Ask: So what EC50 did Cc1nnc(C(C)(C)c2cc(NC(=O)C(C)(C)S(=O)(=O)c3ccc(F)cc3)on2)o1 get with human CB1R (Homo sapiens, UniProt P21554)?
Reply: > 50 µM

Ask: So what EC50 did Cc1cc(-c2nnc(NC(=O)C(C)(C)S(=O)(=O)CCC(C)C)[nH]2)no1 get with human CB1R (Homo sapiens, UniProt P21554)?
Reply: > 50 µM

Ask: So what EC50 did Cc1ncc(C(C)(C)c2cc(NC(=O)C(C)(C)S(=O)(=O)C3CCOCC3)on2)o1 get with human CB1R (Homo sapiens, UniProt P21554)?
Reply: > 200 µM

Ask: So what EC50 did CC(C)(c1cc(NC(=O)C(C)(C)S(=O)(=O)C2CCOCC2)on1)c1cnc(-c2ccccc2)o1 get with human CB1R (Homo sapiens, UniProt P21554)?
Reply: > 50 µM
